Test target: T1, monkey TIM-3 protein with hFc tag (cTIM-3-hFc protein) (monkey; human)
T1 construct: Made in HEK293 cells; also called monkey TIM-3 extracellular domain protein; not shown: human IgG Fc fragment (hFc) of the pCpC vector
T1 chain: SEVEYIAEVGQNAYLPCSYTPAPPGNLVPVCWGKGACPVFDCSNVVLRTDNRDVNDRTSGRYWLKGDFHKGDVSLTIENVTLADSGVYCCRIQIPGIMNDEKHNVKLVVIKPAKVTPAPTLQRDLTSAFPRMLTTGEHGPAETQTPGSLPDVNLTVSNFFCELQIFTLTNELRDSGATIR
Test name: ELISA, coated cTIM-3-hFc; antibody 0.0007 nM
Answer each item with its documented OD450.

134H3G6 (TIM-3 antibody purified from hybridoma, chimeric antibody of Example 2) (antibody, V domains shown, From hybridoma of Harbour H2L2 transgenic mice: human variable regions, rat constant regions) VH: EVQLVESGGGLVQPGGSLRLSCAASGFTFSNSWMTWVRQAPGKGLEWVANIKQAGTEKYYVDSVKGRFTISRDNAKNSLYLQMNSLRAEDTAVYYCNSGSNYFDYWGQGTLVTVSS VL: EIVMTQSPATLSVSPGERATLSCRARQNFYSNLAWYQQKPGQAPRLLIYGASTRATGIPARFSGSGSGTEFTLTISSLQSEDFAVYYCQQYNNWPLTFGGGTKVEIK : 0.55
18D2H2 (TIM-3 antibody purified from hybridoma, chimeric antibody of Example 2) (antibody, V domains shown, From hybridoma of Harbour H2L2 transgenic mice: human variable regions, rat constant regions) VH: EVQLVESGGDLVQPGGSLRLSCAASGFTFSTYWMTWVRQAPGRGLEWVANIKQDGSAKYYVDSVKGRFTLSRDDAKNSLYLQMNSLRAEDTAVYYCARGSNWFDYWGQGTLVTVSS VL: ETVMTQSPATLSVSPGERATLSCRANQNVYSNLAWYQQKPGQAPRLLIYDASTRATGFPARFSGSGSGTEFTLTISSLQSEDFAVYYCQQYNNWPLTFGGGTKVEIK : 0.54
57F4E5 (TIM-3 antibody purified from hybridoma, chimeric antibody of Example 2) (antibody, V domains shown, From hybridoma of Harbour H2L2 transgenic mice: human variable regions, rat constant regions) VH: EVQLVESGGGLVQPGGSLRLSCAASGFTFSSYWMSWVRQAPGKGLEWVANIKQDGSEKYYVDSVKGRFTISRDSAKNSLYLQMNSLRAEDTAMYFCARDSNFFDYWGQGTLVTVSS VL: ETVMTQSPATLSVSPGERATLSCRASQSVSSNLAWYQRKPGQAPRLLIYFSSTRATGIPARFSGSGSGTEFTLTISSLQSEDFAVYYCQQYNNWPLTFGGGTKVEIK : 0.64
34B6D8 (TIM-3 antibody purified from hybridoma, chimeric antibody of Example 2) (antibody, V domains shown, From hybridoma of Harbour H2L2 transgenic mice: human variable regions, rat constant regions) VH: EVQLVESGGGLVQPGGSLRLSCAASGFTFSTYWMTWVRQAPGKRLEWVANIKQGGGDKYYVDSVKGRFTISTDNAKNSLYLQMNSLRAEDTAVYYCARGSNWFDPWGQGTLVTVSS VL: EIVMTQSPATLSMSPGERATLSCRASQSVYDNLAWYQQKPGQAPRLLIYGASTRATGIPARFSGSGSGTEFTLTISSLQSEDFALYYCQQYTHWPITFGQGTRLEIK : 0.61
7A4F10 (TIM-3 antibody purified from hybridoma, chimeric antibody of Example 2) (antibody, V domains shown, From hybridoma of Harbour H2L2 transgenic mice: human variable regions, rat constant regions) VH: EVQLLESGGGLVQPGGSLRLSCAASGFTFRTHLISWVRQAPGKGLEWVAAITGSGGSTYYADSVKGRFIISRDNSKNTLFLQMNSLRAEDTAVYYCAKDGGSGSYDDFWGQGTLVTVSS VL: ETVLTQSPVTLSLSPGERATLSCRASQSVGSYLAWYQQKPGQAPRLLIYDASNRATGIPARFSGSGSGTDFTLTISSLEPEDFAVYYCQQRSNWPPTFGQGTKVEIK : 0.55

For the binder 39E5H1 (TIM-3 antibody purified from hybridoma, chimeric antibody of Example 2) (antibody, V domains shown, From hybridoma of Harbour H2L2 transgenic mice: human variable regions, rat constant regions) VH: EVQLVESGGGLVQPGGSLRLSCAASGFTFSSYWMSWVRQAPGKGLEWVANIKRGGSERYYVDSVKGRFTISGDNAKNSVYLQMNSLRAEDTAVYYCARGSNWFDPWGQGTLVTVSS VL: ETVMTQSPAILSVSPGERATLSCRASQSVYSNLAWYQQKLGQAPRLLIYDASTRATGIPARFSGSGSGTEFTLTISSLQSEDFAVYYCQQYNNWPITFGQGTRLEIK , what OD450 is on record? 0.61
